Ref: ChEMBL document CHEMBL1201862

# Tested on: NCI-H460
# Assay Info: NCI tumour cell line growth inhibition, 48 h
Activity calls are given as the source filed them. No stated cut-off is given here; in the data, active = GI50 up to about 1.1 µM and inactive = higher.
Result category, one only: active, inactive

Consider the worked cases shown below.
| Compound | Target Of Assay | Group Label |
| --- | --- | --- |
| CC(C)(C)OC(=O)NCCCCCCC(=O)Cc1ccccc1 | NCI-H460 | inactive |
| COC(=O)[C@@H]1c2cc3c(c(O)c2[C@@H](OC)C[C@@]1(C)O)C(=O)c1c(O)cc2c(c1C3=O)OC1O[C@@]2(C)[C@H](O)[C@@H](N(C)C)[C@@H]1O | NCI-H460 | active |
| Cc1nc2c(Cl)cc(Cl)cc2c(Cl)c1CCCl | NCI-H460 | inactive |
| O=C(NC(Cc1c[nH]cn1)C(=O)N1CCCC1)C1CCCC1 (stereo not drawn) | NCI-H460 | inactive |

Q: Status in this test for N#C/C(=C\c1ccc(Br)cc1)c1nc(-c2cc3ccccc3oc2=O)cs1 ?
Ans: inactive

Q: Status in this test for C[C@H]1[C@@H]2C[C@@H]3O[C@@]34[C@H]3CCC5Cc6nc7c(nc6C[C@@]5(C)[C@]3(O)CC(=O)[C@@]24CO[C@]12OC(C)(C)C[C@@H]2O)CC1CC[C@@H]2C3=C[C@H]4O[C@@]5(OC(C)(CO)C[C@@H]5O)[C@H](C)[C@@]4(O)[C@]3(C)[C@@H](O)CC2[C@]1(C)C7 (stereo partly drawn) ?
Ans: active

Q: Status in this test for O=c1c2cccnc2n2n1Cc1ccccc1C2 ?
Ans: inactive

Q: Status in this test for CCOC(=O)NC(=O)c1cn(C2CCCCC2)c(=O)[nH]c1=O ?
Ans: inactive
